EXPERIMENT_DESCRIPTION: chemical genetic growth profiling, strain panel (AID 1159580);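 note: tested at 20 µM; growth read once vehicle control cultures reached saturation at 30 °C; 1 = growth at the plate median or of vehicle wells; lower values mean less growth of the strain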
STUDY_CONDITIONS: S. cerevisiae deletion strains, growth OD, locus YHR030C, strain SLT2, active compounds read low
The campaign covered roughly 5,500 compounds. About 2,000 (36%) were called active. Another 18% or so got no clear call; they are omitted. The list shows a part of the results.
EXPERIMENTAL_ENDPOINT: normalized growth

COMPOUND	MEASURED_VALUE
CC(=O)O[C@H]1C[C@@H](OC(C)=O)C(C)(C)C2CC(=O)[C@]3(C)C(CC[C@@]4(C)[C@H](c5ccoc5)OC(=O)[C@H]5O[C@]543)[C@]21C (stereo partly specified)	0.969 (inactive)
S=C(Nc1cc(Cl)c(Cl)cc1Cl)Nc1ccccc1Br	0.67 (active)
Cc1ccc(N2C(=O)CSC2c2ccc(Cl)c(Cl)c2)cc1Cl (stereo unspecified)	0.808 (active)
COc1ccc(OCC(N)=O)cc1	1.07 (inactive)
O=C1CSC(c2ccc(C(F)(F)F)cc2)N1c1ccc(C(F)(F)F)cc1 (stereo unspecified)	0.878 (inactive)
NCCOB(c1ccccc1)c1ccccc1	0.106 (active)
COc1cc(OC)c2c3c1C(=O)c1c(OC)cc(C)c4c(OC)cc(c-3c14)C(C)(C)C2=O	1.01 (inactive)
C/C=C/C(=O)N(CC)c1ccccc1C	1.03 (inactive)
S=C(NNc1ccccc1)Nc1cc(Cl)ccc1Cl	0.853 (inactive)
O=C(O)CCOc1ccc(Cl)cc1	1.01 (inactive)
COc1ccc(CC2CCC(=NOC(=O)c3ccc(C(C)(C)C)cc3)CC2)cc1 (stereo unspecified)	0.828 (active)

Origin of values: PubChem BioAssay AID1159580
